Values compiled from paper PMC3961306.

Tested on: forty-four human cancer cell lines
TEST_SUMMARY: Cell proliferation assay (ATPlite, 72 hours) in the 44 cell line Oncolines panel
Assay type: cell-based
CONDITIONS: Homo sapiens, 769-P, cell line 769-P; read-out: cell panel IC50, 769-P

{"MOLECULE": "O=c1[nH]cc(F)c(=O)[nH]1", "SYSTEM_NAME": "forty-four human cancer cell lines", "READOUT_UNIT": "µM", "IC50": 4.74}

###

SYSTEM_NAME: panel of more than 300 wild-type and mutant kinases (313 kinase panel) (Homo sapiens)
Sequence (P45984 whole entry, change not shown): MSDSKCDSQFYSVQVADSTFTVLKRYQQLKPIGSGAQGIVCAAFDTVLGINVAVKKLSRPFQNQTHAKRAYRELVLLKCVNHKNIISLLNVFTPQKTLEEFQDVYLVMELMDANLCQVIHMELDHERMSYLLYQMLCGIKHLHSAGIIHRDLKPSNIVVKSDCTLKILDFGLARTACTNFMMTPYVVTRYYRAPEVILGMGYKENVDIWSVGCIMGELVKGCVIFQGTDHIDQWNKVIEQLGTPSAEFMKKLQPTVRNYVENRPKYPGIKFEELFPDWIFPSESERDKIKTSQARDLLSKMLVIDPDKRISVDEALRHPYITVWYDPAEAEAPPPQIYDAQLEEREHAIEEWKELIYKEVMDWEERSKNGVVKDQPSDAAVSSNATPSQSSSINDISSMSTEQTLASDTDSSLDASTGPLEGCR
TEST_SUMMARY: Kinase profiling in a biochemical assay panel (mobility shift assays and ELISA), %-inhibition at 1 μM; selectivity entropy
CONDITIONS: kinase JNK2; compound at 1 μM
Listed here: items and their measured %-inhibition of JNK2.
PROPERTY_LABEL: %-inhibition of JNK2 (%)

{"MOLECULE": "O=S(=O)(c1cccc2cnccc12)N1CCCNCC1", "TEST_VALUE": -5}
{"MOLECULE": "CS(=O)(=O)CCNCc1ccc(-c2ccc3ncnc(Nc4ccc(OCc5cccc(F)c5)c(Cl)c4)c3c2)o1", "TEST_VALUE": -8}
{"MOLECULE": "CO[C@H]1C[C@@H]2CC[C@@H](C)[C@@](O)(O2)C(=O)C(=O)N2CCCC[C@H]2C(=O)O[C@H]([C@H](C)C[C@@H]2CC[C@@H](OC(=O)C(C)(CO)CO)[C@H](OC)C2)CC(=O)[C@H](C)/C=C(\\C)[C@@H](O)[C@@H](OC)C(=O)[C@H](C)C[C@H](C)/C=C/C=C/C=C/1C", "TEST_VALUE": -4.61}
{"MOLECULE": "CCCS(=O)(=O)Nc1ccc(F)c(C(=O)c2c[nH]c3ncc(-c4ccc(Cl)cc4)cc23)c1F", "TEST_VALUE": -0.0632}
{"MOLECULE": "CNC(=O)c1cc(Oc2ccc(NC(=O)Nc3ccc(Cl)c(C(F)(F)F)c3)c(F)c2)ccn1", "TEST_VALUE": 57}
{"MOLECULE": "CO[C@H]1C[C@@H]2CC[C@@H](C)[C@@](O)(O2)C(=O)C(=O)N2CCCC[C@H]2C(=O)O[C@H]([C@H](C)C[C@@H]2CC[C@@H](OCCO)[C@H](OC)C2)CC(=O)[C@H](C)/C=C(\\C)[C@@H](O)[C@@H](OC)C(=O)[C@H](C)C[C@H](C)/C=C/C=C/C=C/1C", "TEST_VALUE": -5.37}
